The origin of these recorded values is paper PMC12263422.

subject-of-test: THIK-1 V269A (Homo sapiens, UniProt Q9HB14, V269A)
Construct: expressed in transfected cells; host or cells: Xenopus oocytes (mRNA injection)
Sequence (Q9HB14 whole entry V269A): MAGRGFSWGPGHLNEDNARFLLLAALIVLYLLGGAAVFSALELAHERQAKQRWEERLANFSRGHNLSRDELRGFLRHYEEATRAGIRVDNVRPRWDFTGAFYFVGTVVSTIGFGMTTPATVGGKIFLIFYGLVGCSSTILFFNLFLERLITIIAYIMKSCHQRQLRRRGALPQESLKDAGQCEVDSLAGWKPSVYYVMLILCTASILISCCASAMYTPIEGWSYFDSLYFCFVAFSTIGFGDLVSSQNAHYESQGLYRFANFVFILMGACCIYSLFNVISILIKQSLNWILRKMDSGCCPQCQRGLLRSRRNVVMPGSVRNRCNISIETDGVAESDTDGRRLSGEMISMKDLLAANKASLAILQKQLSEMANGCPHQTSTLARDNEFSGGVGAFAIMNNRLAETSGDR
method-notes: Inside-out excised patch recordings, oocytes, THIK-1 V269A mutant
Assay type: cell-based
cond: THIK-1 V269A, mean; read-out: TPenA IC50
experimental-endpoint: pIC50
The meaning of pIC50 here: minus log10 of the concentration in molar units.

Return reported pIC50; argument: `CCCCC[N+](CCCCC)(CCCCC)CCCCC`
2.66

---

subject-of-test: Human K2P13.1 THIK-1 (WT) (Homo sapiens, UniProt Q9HB14)
Construct: expressed in transfected cells; host or cells: Xenopus oocytes (mRNA injection)
Sequence (Q9HB14 whole entry): as the sequence (Q9HB14 whole entry V269A) above, with A269V counted along it
method-notes: Macroscopic inside-out excised patch recordings from Xenopus oocytes expressing WT THIK-1; compounds applied to the intracellular side
Assay type: cell-based
cond: TPenA IC50, THIK-1 WT, mean
experimental-endpoint: pIC50
The meaning of pIC50 here: minus log10 of the concentration in molar units.

Return reported pIC50; argument: `CCCCC[N+](CCCCC)(CCCCC)CCCCC`
3.65

---

subject-of-test: Human K2P13.1 THIK-1 (WT) (Homo sapiens, UniProt Q9HB14)
Construct: expressed in transfected cells; host or cells: Xenopus oocytes (mRNA injection)
method-notes: Macroscopic inside-out excised patch recordings from Xenopus oocytes expressing WT THIK-1; compounds applied to the intracellular side
Format: cell-based
cond: THIK-1 WT, mean; read-out: Linoleic acid EC50
experimental-endpoint: EC50 (µM)
Entry rule: numbers only, all in µM.

Return reported EC50; argument: `CCCCC/C=C\C/C=C\CCCCCCCC(=O)O`
28.5

---

subject-of-test: THIK-1 R258A (Homo sapiens, UniProt Q9HB14, R258A)
Construct: expressed in transfected cells; host or cells: Xenopus oocytes (mRNA injection)
Sequence (Q9HB14 whole entry R258A): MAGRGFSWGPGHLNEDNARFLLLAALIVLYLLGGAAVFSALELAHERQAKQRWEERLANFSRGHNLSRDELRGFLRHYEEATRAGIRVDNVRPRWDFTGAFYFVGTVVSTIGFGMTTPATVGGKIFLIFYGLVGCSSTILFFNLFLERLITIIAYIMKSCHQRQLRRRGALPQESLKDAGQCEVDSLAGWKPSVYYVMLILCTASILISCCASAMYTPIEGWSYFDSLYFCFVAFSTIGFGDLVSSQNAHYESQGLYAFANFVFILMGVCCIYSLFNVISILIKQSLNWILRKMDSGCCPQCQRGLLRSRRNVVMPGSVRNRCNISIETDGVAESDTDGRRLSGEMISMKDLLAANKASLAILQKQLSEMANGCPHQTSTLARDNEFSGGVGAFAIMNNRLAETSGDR
method-notes: Inside-out excised patch recordings, oocytes, THIK-1 R258A mutant (lipid activation)
Format: cell-based
cond: mean, read-out: Linoleic acid EC50
experimental-endpoint: pEC50
The meaning of pEC50 here: minus log10 of the concentration in molar units.

Return reported pEC50; argument: `CCCCC/C=C\C/C=C\CCCCCCCC(=O)O`
4.37
